So I've got a bunch of compounds here, and I need their Max resp % of IMP +Alanine (20 mM) values.
target: T1R1/T1R3 receptor (Felis catus); experiment: Activation of T1R1/T1R3 receptor by transmembrane compounds and nucleotide derivatives, conducted as in Examples 1, 2 and 5 (Example 7); format: cell-based, cat; conditions: hek293 cells

Solved cases (2 shown):
O=C1CC(=O)N(Cc2ccccc2)C(=O)N1Cc1ccccc1: 42.7 % of IMP
CC(=O)Nc1ccc(C(=O)Nc2cc(-c3ccccc3)nn2CCO)cc1: 1.8 % of IMP

Batch request: Max resp % of IMP +Alanine (20 mM) for each of the following compounds.
1. O=C(NCCc1ccccc1)c1cccnc1 [N-phenethylnicotinamide]
2. O=C(NCCCCNC(=O)c1cccnc1)c1cccnc1 [N,N′-(butane-1,4-diyl)dinicotinamide]
3. O=C(NCCc1c[nH]c2ccccc12)c1cccnc1 [N-(2-(1H-indol-3-yl)ethyl)nicotinamide, N-(2-(1H-Indol-3-yl)ethyl)nicotinamide]
4. CC(C)CC(NC(=O)c1ccccc1)C(N)=O (racemic)
5. COC(=O)[C@H](Cc1ccccc1)NCc1ccccc1
6. O=C(NCCc1ccccc1)c1ccc2c(c1)OCO2
7. CCCCc1nn(CC(=O)N2CCCC2)c(=O)n1Cc1ccccc1

Ans.
83.6 % of IMP
9.5 % of IMP
166.4 % of IMP
125.5 % of IMP
273.4 % of IMP
11.3 % of IMP
129.9 % of IMP

---

Assignment: determine reported Max. resp. % of IMP for the given molecules.
molecular target: cat T1R1/T1R3 receptor (Felis catus, UniProt E3UMS2); assay: cell-based; type: cell-based; conditions: in the presence of 20 mM alanine; relative to response with IMP
Structures can show the parent of a compound that is named as a salt.

The cases that follow already have their Max. resp. % of IMP on record.
O=c1[nH]cnc2c1ncn2[C@@H]1O[C@H](COP(=O)(O)OP(=O)(O)O)[C@@H](O)[C@H]1O [Inosine 5′-diphosphate (IDP) sodium salt, inosine 5′-diphosphate (IDP) sodium salt]: 33.3 % of IMP
Nc1nc2c(ncn2[C@H]2C[C@H](O)[C@@H](COP(=O)(O)O)O2)c(=O)[nH]1 [2′-Deoxyguanosine 5′-monophosphate]: 61.2 % of IMP
O=C(Nc1ncnc2c1ncn2[C@@H]1O[C@H](COP(=O)(O)O)[C@@H](O)[C@H]1O)c1ccccc1: 105.6 % of IMP
CNc1ccccc1C(=O)O[C@@H]1[C@H](O)[C@@H](COP(=O)(O)O)O[C@H]1n1cnc2c(=O)[nH]c(N)nc21: 74.3 % of IMP
O=P(O)(O)OC[C@H]1O[C@@H](n2cnc3c(S)ncnc32)[C@H](O)[C@@H]1O [6-Thioinosine Phosphate]: 111.7 % of IMP

Qu. Can you share its Max. resp. % of IMP? I mean this molecule: Nc1nc(Cl)c2ncn(C3OC(COP(=O)(O)O)C(O)C3O)c2n1 (stereo not drawn)
Ans. 150.5 % of IMP

---

biological target: T1R1/T1R3 receptor (Felis catus); test: Activation of T1R1/T1R3 receptor by transmembrane compounds and nucleotide derivatives, conducted as in Examples 1, 2 and 5 (Example 7); type: cell-based, cat; conditions: read-out: T1R1/T1R3 EC50
result-type: EC50

Solved cases (2 shown):
O=C(NCCc1ccccc1)c1cccnc1 [N-phenethylnicotinamide]: > 300 µM
CC(C)CC(NC(=O)c1ccccc1)C(N)=O (racemic): > 1000 µM

Now consider the entry below.
Qu. I would be grateful if you could share the reported EC50 for O=C(NCCCCNC(=O)c1cccnc1)c1cccnc1 [N,N′-(butane-1,4-diyl)dinicotinamide] .
Ans. 610 µM

---

target: T1R1/T1R3 receptor (Felis catus); test: Activation of T1R1/T1R3 receptor by transmembrane compounds and nucleotide derivatives, conducted as in Examples 1, 2 and 5 (Example 7); format: cell-based, cat; settings: compound alone in buffer; read-out: EC50 +buffer (alone)
pEC50: −log10 of the molar value.
result-type: pEC50

Qu. Hello, I am looking for reported pEC50 with T1R1/T1R3 receptor (Felis catus) for CCCCc1nn(CC(=O)N2CCCC2)c(=O)n1Cc1ccccc1 . Could you help?
Ans. < 3.22

---

molecular target: cat T1R1/T1R3 receptor (Felis catus); experiment: cell-based; type: cell-based
Counter-ions that a name gives are not always drawn.
Please provide measured Max resp. (ΔF/F) for the entries that follow.

Solved cases below.
O=P(O)(O)OC[C@H]1O[C@@H](n2cnc3cncnc32)[C@H](O)[C@@H]1O [Purine riboside-5′-O-monophosphate, reference compound]: 2.0266 ΔF/F
Nc1ncnc2c1ncn2[C@@H]1O[C@H](COP(O)(O)=S)[C@@H](O)[C@H]1O [Adenosine-5′-O-monophosphorothioate]: 1.2435 ΔF/F
O=c1ccn([C@H]2O[C@@H](COP(=O)(O)O)[C@H](O)[C@@H]2O)c(=O)[nH]1 (stereo in doubt) [Uridine 5′-monophosphate disodium salt, reference compound]: 0.2316 ΔF/F
CNc1ccccc1C(=O)OC1C[C@H](n2cnc3c(=O)[nH]c(N)nc32)O[C@@H]1COP(=O)(O)O (stereo in doubt): 0.295 ΔF/F
CC(=O)Nc1nc2c(ncn2[C@@H]2O[C@H](COP(=O)(O)O)[C@@H](O)[C@H]2O)c(=O)[nH]1 [N-Acetyl-5′-GMP]: 1.3351 ΔF/F

Please give Max resp. (ΔF/F), item by item, for the list that follows.
1. Nc1nc2c(ncn2[C@@H]2O[C@H](COP(O)(O)=S)C(O)C2O)c(=O)[nH]1 (stereo partly shown) [Guanosine-5′-monophosphorothioate]
2. Nc1ncnc2c1ncn2C1OC(COP(=O)(O)O)C(OP(=O)(O)O)C1O (stereo not shown) [Adenosine 3′,5′-diphosphate sodium salt, adenosine 3′, 5′ diphosphate sodium salt]
3. Nc1ncnc2c1ccn2[C@H]1O[C@@H](COP(=O)(O)O)[C@H](O)[C@@H]1O (stereo in doubt) [7-Deazaadenosine-5′-O-monophosphate]
4. NC(=O)c1ncn(C2OC(COP(=O)(O)O)C(O)C2O)n1 (stereo not shown) [Ribavirin 5′-Monophosphate]
5. CNc1ncnc2c1ncn2[C@@H]1O[C@H](COP(=O)(O)O)[C@@H](O)[C@H]1O [N6-Methyladenosine 5′-monophosphate]
6. Nc1nc2c(ncn2[C@H]2CC(O)[C@@H](COP(O)(O)=S)O2)c(=O)[nH]1 (stereo in doubt)

Ans.
1.29 ΔF/F
0.9578 ΔF/F
0.4979 ΔF/F
1.5294 ΔF/F
0.9907 ΔF/F
1.0775 ΔF/F

Batch: Max resp. (ΔF/F) for all items listed.
1. CNc1ncnc2c1ncn2[C@H]1C[C@H](OP(=O)(O)O)[C@@H](COP(=O)(O)O)O1 [MRS 2179 ammonium salt hydrate, diammonium salt]
2. Nc1nc2c(ncn2[C@H]2C[C@H](O)[C@@H](COP(O)(O)=S)O2)c(=O)[nH]1

Ans.
1. 1.8150 ΔF/F
2. 0.8446 ΔF/F

---

molecular target: T1R1/T1R3 receptor (Felis catus, UniProt E3UMS2); experiment: Activation of T1R1/T1R3 receptor by transmembrane compounds alone or with alanine, IMP, GMP, phenylalanine; HEK293 cells, calcium fluorescence (Example 5); format: cell-based, cat; details: +IMP (0.2 mM)
result-type: Max resp ΔF/F +IMP (0.2 mM)

Study these solved cases before continuing.
O=C(Nc1ccccc1Br)N[C@@H]1c2ccccc2C[C@@H]1O (stereo in doubt): 0.378 ΔF/F
CCOC(=O)C(NC(=O)c1ccc2c(c1)OCO2)C(C)C (stereo not drawn): 0.65 ΔF/F
CSc1ccc(-c2nnn(Cc3ccccn3)n2)cc1: 0.678 ΔF/F

Count: 2. Required value per item: Max resp ΔF/F +IMP (0.2 mM).
1. CCC(CC)NC(=O)c1ccc(C)c(C)c1 [3,4-dimethyl-N-(pentan-3-yl)benzamide]
2. COc1cc(C(=O)NC(C(N)=O)c2ccccc2)cc(Cl)c1OC (stereo not drawn)

Ans.
["1.5475 ΔF/F", "0.415 ΔF/F"]

---

target: T1R1/T1R3 receptor (Felis catus, UniProt E3UMS2); assay: Activation of T1R1/T1R3 receptor by transmembrane compounds alone or with alanine, IMP, GMP, phenylalanine; HEK293 cells, calcium fluorescence (Example 5); assay type: cell-based, cat; conditions: +Alanine (20 mM); relative to IMP
Give measured Max resp % of IMP +Alanine (20 mM) for each item. Keep answers brief.
Please append the unit to your numeric answer.

Before answering, review these 3 worked examples.
CC1CCCC(NC(=O)c2ccc3c(c2)OCO3)C1C (stereo not shown): 18.1%
COc1ccc(/C=C/C(=O)NC2CCCCC2C)cc1 (stereo not shown): 63.2%
O=C(NCCc1ccccc1)C(=O)NCc1cccnc1: 30.2%

Consider now this further compound.
Qu. Look up Max resp % of IMP +Alanine (20 mM): CCC(CC)NC(=O)c1ccc(Br)o1
Ans. 126.8%

// data source = patent US11185100B2
